test target: human M4 receptor (Homo sapiens (Human))
Sequence (P08173 whole entry): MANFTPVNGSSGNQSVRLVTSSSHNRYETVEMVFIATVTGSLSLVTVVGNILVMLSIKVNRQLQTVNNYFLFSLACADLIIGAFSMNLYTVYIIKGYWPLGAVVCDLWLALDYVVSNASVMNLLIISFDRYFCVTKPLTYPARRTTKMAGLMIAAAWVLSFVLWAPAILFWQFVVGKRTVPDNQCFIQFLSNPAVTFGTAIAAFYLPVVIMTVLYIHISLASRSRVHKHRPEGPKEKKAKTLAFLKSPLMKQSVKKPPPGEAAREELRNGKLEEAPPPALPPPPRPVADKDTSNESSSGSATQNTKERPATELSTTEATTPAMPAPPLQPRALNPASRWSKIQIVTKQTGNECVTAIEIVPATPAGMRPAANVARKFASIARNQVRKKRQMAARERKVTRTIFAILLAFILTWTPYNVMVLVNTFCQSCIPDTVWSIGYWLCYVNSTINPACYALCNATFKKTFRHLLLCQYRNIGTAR
pKi: −log10 of the molar value.
measurement type: pKi

Take a look at these entries with their results.
[[record]]
compound = "CCS(=O)(=O)c1cnc(N2CCN(C(=O)OC3CC4(C3)CN(Cc3ccccc3)C4)[C@H](C)C2)nc1"
test_target = "human M4 receptor (Homo sapiens (Human))"
measurement_type = "pKi"
reported_result = "> 7.00"

[[record]]
compound = "C[C@@H]1CN(c2ncc(OCC(O)C(F)F)cn2)C[C@H](C)N1C(=O)OC1CC2(C1)CN(Cc1ccccc1)C2 (stereo partly shown)"
test_target = "human M4 receptor (Homo sapiens (Human))"
measurement_type = "pKi"
reported_result = "6.30 to 7.00"


Prompt line: Identify pKi associated with the compound C[C@@H]1CN(c2ncc(S(=O)(=O)C(F)F)cn2)[C@@H](C)CN1C(=O)OC1CC2(C1)CN(Cc1ccccc1)C2
Response line: > 7.00

Prompt line: Identify pKi associated with the compound Cc1nc(N2C[C@@H](C)N(C(=O)OC3CC4(C3)CN(Cc3ccccc3)C4)C[C@@H]2C)ncc1S(C)(=O)=O
Response line: > 7.00
